target: Cyclin-dependent kinase 2/cyclin E1 (Homo sapiens, UniProt P24941); assay: Binding affinity to CDK2/Cyclin E1 (unknown origin) using Ulight-MBP as substrate assessed as inhibition constant preincubated for 30 mins followed by substrate addition measured after 90 mins in presence of ATP by TR-FRET assay
Below, each of the molecules is paired with its reported Ki value.
Return type: number; implicit unit nM.

Some molecules with known Ki results, for comparison:
CNS(=O)(=O)c1ccc(Nc2ncc3ccc(C(=O)N4C[C@@H](C#N)[C@@H]4C)nc3n2)c(F)c1 ... 0.44
C[C@H]1CCCN1C(=O)c1ccc2cnc(NC3CCN(S(N)(=O)=O)CC3)nc2c1 ... 0.18
CNS(=O)(=O)c1ccc(Nc2ncc3ccc(C(=O)N4C[C@H](F)[C@@H]4C)nc3n2)c(F)c1 ... 2.1
CNS(=O)(=O)c1ccc(Nc2ncc3ccc(C(=O)N4C[C@@H](F)[C@@H]4C)nc3n2)c(F)c1 ... 0.21
CNS(=O)(=O)c1ccc(Nc2ncc3ccc(C(=O)N4C[C@H](F)C[C@@H]4C)cc3n2)c(C)c1 ... 8.7

Query block: Bench note: what Ki did `CNS(=O)(=O)c1ccc(Nc2ncc3ccc(C(=O)N4C[C@@H](F)C[C@@H]4C)cc3n2)c(C)c1` show?
Result block: 0.49

Query block: Okay, and `O=C(c1ccc2cnc(NC3CCOCC3)cc2n1)N1CCCCC1` ?
Result block: 920

Query block: Okay, and `C[C@H]1CCCN1C(=O)c1ccc2cnc(NC3CCN(S(C)(=O)=O)CC3)nc2c1` ?
Result block: 71

Query block: Okay, and `Cc1cc(S(C)(=O)=O)ccc1Nc1ncc2ccc(C(=O)N3CCC[C@@H]3C)cc2n1` ?
Result block: 17

###

experiment: Volume of distribution at steady state in CD-1 mouse at 1 mg/kg, iv measured for 5 mins by LC-MS/MS analysis; format: ADME, organism-based; details: CD-1, mouse, in vivo, read-out: Vdss
property-name: Vd (L/kg)
Return type: number; implicit unit L/kg.

CNS(=O)(=O)c1ccc(Nc2ncc3ccc(C(=O)N4C[C@@H](C#N)[C@@H]4C)nc3n2)c(F)c1 ... 0.35

Moving on to another compound below.
Query block: Bench note: what Vd did `CNS(=O)(=O)c1ccc(Nc2ncc3ccc(C(=O)N4C[C@@H](OC)[C@@H]4C)nc3n2)c(F)c1` show?
Result block: 0.78

###

assay: Antiproliferative activity against human OVISE cells assessed as inhibition of cell division incubated for 16 hrs by EdU incorporation assay; type: functional, cell-based
property-name: pIC50
Just so you know, pIC50 here is -log10 of the concentration in molar units; reply with that number alone.

Some compounds with known pIC50 results, for comparison:
C[C@@]1(O)CCC[C@H]1n1c(=O)c(C(F)F)cc2cnc(NC3CCN(S(C)(=O)=O)CC3)nc21 [EBVACICLIB] ... 7.34
CNS(=O)(=O)c1ccc(Nc2ncc3ccc(C(=O)N4C[C@@H](F)[C@@H]4C)nc3n2)c(F)c1 ... 7.48
CNS(=O)(=O)c1ccc(Nc2ncc3ccc(C(=O)N4C[C@H](F)[C@@H]4C)nc3n2)c(F)c1 ... 6.44
CNS(=O)(=O)c1ccc(Nc2ncc3ccc(C(=O)N4C[C@@H](O)[C@@H]4C)nc3n2)c(F)c1 ... 6.37

Query block: Bench note: what pIC50 did `CNS(=O)(=O)c1ccc(Nc2ncc3ccc(C(=O)N4C[C@@H](F)C[C@@H]4C)nc3n2)c(F)c1` show?
Result block: 6.59

###

Below, each of the compounds is paired with its reported CLhep predicted at 1 µM value.
assay: Metabolic stability in human liver microsomes assessed as clearance at 1 uM incubated upto 180 mins by LC/MS-MS analysis; type: ADME, Microsome

Some compounds with known CLhep predicted at 1 µM results, for comparison:
CNS(=O)(=O)c1ccc(Nc2ncc3ccc(C(=O)N4C[C@@H](F)[C@@H]4C)nc3n2)c(F)c1 ... 17 mL/min/kg
CNS(=O)(=O)c1ccc(Nc2ncc3ccc(C(=O)N4C[C@@H](OC)[C@@H]4C)nc3n2)c(F)c1 ... 9.4 mL/min/kg
CNS(=O)(=O)c1ccc(Nc2ncc3ccc(C(=O)N4CC[C@@H]4C)nc3n2)c(F)c1 ... 18 mL/min/kg

Query block: Bench note: what CLhep predicted at 1 µM did `CS(=O)(=O)N1CCC(Nc2ncc3ccc(C(=O)N4CCCC4)cc3n2)CC1` show?
Result block: < 3.9 mL/min/kg

###

test: Apparent permeability across apical to basolateral side in MDCK cells at 5 uM measured for 60 to 180 mins by LC-MS/MS analysis; type: ADME, cell-based, Canis lupus familiaris; details: dog, time 60-180 min
property-name: Papp A→B at 5 µM (×10⁻⁶ cm/s)
Return type: number; implicit unit ×10⁻⁶ cm/s.

Some molecules with known Papp A→B at 5 µM results, for comparison:
CNS(=O)(=O)c1ccc(Nc2ncc3ccc(C(=O)N4C[C@@H](C#N)[C@@H]4C)nc3n2)c(F)c1 ... 5
CNS(=O)(=O)c1ccc(Nc2ncc3ccc(C(=O)N4C[C@@H](OC)[C@@H]4C)nc3n2)c(F)c1 ... 17

Moving on to another molecule below.
Query block: Bench note: what Papp A→B at 5 µM did `CNS(=O)(=O)c1ccc(Nc2ncc3ccc(C(=O)N4C[C@@H](F)[C@@H]4C)nc3n2)c(F)c1` show?
Result block: 15

###

assay: Metabolic stability in human liver microsomes assessed as clearance at 1 uM incubated upto 180 mins by LC/MS-MS analysis; assay type: ADME, Microsome
property-name: CLhep predicted at 1 µM (mL/min/kg)
Return type: number; implicit unit mL/min/kg.

CNS(=O)(=O)c1ccc(Nc2ncc3ccc(C(=O)N4CCC[C@@H]4C)cc3n2)cc1 ... 19
CNS(=O)(=O)c1ccc(Nc2ncc3ccc(C(=O)N4C[C@H](F)[C@@H]4C)nc3n2)c(F)c1 ... 19
CNS(=O)(=O)c1ccc(Nc2ncc3ccc(C(=O)N4CCC[C@@H]4C)cc3n2)c(C)c1 ... 18
CNS(=O)(=O)c1ccc(Nc2ncc3ccc(C(=O)N4C[C@H](F)C[C@@H]4C)cc3n2)c(C)c1 ... 14
Cc1cc(S(C)(=O)=O)ccc1Nc1ncc2ccc(C(=O)N3CCC[C@@H]3C)cc2n1 ... 13
CNS(=O)(=O)c1ccc(Nc2ncc3ccc(C(=O)N4C[C@@H](C#N)[C@@H]4C)nc3n2)c(F)c1 ... 11

Query block: Bench note: what CLhep predicted at 1 µM did `CNS(=O)(=O)c1ccc(Nc2ncc3ccc(C(=O)N4C[C@@H](F)C[C@@H]4C)nc3n2)c(F)c1` show?
Result block: 13

###

Below, each of the compounds is paired with its reported AUC(0-inf) value.
test: AUC (infinity) in CD-1 mouse at 50 mg/kg, po measured for 24 hrs by LC-MS/MS analysis; assay type: ADME, organism-based; design: time 24 hrs, dose 50 mg/kg, route po; conditions: in vivo
Return type: number; implicit unit µM·h.

Some compounds with known AUC(0-inf) results, for comparison:
CNS(=O)(=O)c1ccc(Nc2ncc3ccc(C(=O)N4CC[C@@H]4C)nc3n2)c(F)c1 ... 11
CNS(=O)(=O)c1ccc(Nc2ncc3ccc(C(=O)N4C[C@@H](C#N)[C@@H]4C)nc3n2)c(F)c1 ... 5.5

Moving on to another compound below.
Query block: Bench note: what AUC(0-inf) did `CNS(=O)(=O)c1ccc(Nc2ncc3ccc(C(=O)N4C[C@@H](OC)[C@@H]4C)nc3n2)c(F)c1` show?
Result block: 13

###

Below, each of the compounds is paired with its reported Ki value.
molecular target: Mitogen-activated protein kinase 1 (Homo sapiens, UniProt P28482); assay: Binding affinity to ERK2 (unknown origin) using Ulight-MBP as substrate assessed as inhibition constant preincubated for 30 mins followed by substrate addition measured after 90 mins in presence of ATP by TR-FRET assay
Sequence (P28482 whole entry): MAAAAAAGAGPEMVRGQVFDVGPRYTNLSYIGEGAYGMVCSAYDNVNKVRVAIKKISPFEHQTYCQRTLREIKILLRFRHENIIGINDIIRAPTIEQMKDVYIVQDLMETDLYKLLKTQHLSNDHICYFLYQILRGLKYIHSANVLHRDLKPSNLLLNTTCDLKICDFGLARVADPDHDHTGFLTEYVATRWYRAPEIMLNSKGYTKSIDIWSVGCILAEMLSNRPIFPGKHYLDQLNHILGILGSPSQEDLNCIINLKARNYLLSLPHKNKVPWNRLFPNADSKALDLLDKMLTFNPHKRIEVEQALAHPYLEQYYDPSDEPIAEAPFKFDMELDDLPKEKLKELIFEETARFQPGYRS
Your reply should be a number followed by the unit it is expressed in.

Some compounds with known Ki results, for comparison:
O=C(N[C@H](CO)c1ccc(Cl)c(F)c1)c1ccc2cnc(NC3CCOCC3)nc2c1 ... 220 pM
O=C(N[C@H](CO)c1ccc(Cl)c(F)c1)c1ccc2cnc(NC3CCOCC3)cc2n1 ... 360 pM

Moving on to another compound below.
Query block: Bench note: what Ki did `O=C(N[C@H](CO)c1ccc(Cl)c(F)c1)c1ccc2cnc(NC3CCOCC3)nc2n1` show?
Result block: 170 pM

###

Below, each of the compounds is paired with its reported Ratio Ki value.
assay: Selectivity ratio of Ki for CDK4/Cyclin D3 (unknown origin) to Ki for CDK2/Cyclin E1 (unknown origin)
Answer with a bare number; do not write a unit.

Query block: Bench note: what Ratio Ki did `CNS(=O)(=O)c1ccc(Nc2ncc3ccc(C(=O)N4C[C@@H](F)C[C@@H]4C)cc3n2)c(C)c1` show?
Result block: 155

###

assay: Metabolic stability in mouse liver microsomes assessed as clearance at 1 uM incubated upto 180 mins by LC/MS-MS analysis; assay type: ADME, Microsome
property-name: CLhep predicted at 1 µM (mL/min/kg)
Return type: number; implicit unit mL/min/kg.

CNS(=O)(=O)c1ccc(Nc2ncc3ccc(C(=O)N4C[C@@H](F)[C@@H]4C)nc3n2)c(F)c1 ... 50

Moving on to another compound below.
Query block: Bench note: what CLhep predicted at 1 µM did `CNS(=O)(=O)c1ccc(Nc2ncc3ccc(C(=O)N4C[C@@H](OC)[C@@H]4C)nc3n2)c(F)c1` show?
Result block: 51

Where do the numbers come from? From ChEMBL document CHEMBL5365513.
